biological target: T1, recombinant human PSMA (prostate-specific membrane antigen), biotin-tagged (human, UniProt Q04609 44-750, biotin tag (site not stated)); test: PSMA ELISA on plates coated with recombinant PSMA, two-fold dilution series, goat anti-human-HRP and TMB
T1 construct: also called biotin-tagged PSMA; biotin-labelled PSMA
T1 sequence (Q04609 44-750 limits assumed): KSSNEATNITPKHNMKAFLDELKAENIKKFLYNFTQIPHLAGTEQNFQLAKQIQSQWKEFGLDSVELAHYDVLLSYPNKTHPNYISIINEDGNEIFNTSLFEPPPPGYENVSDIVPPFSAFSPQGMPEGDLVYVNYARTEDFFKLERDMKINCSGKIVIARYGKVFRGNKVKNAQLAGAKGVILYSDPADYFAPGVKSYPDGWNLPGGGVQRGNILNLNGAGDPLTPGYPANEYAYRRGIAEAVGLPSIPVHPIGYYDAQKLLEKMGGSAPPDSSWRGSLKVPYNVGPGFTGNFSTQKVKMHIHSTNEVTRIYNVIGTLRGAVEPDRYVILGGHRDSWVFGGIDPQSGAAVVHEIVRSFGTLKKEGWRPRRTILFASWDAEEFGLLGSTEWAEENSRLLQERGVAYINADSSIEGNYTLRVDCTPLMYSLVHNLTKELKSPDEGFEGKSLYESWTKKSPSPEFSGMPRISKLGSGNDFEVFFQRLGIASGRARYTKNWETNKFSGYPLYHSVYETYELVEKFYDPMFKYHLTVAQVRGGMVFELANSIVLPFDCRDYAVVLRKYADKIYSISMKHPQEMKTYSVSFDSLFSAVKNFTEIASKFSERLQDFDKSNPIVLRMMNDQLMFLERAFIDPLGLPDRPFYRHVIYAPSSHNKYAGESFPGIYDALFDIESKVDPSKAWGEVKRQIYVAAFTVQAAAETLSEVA

{"BINDER": "h5D3 variant LVg2HVg5 (antibody, human IgG1, V domains shown, Full-length human IgG1 kappa variant of h5D3 (antibody 6)) VH: EVQLVESGGGLVQPGGSLRLSCAASGYAFQTSWMNWVRQAPGKGLEWISRIYPGEGSTNYNAKFKGKATISADKSKNTLYLQMNSLRAEDTAVYYCARGEWYLYYFDYWGQGTLVTVSS VL: DIQMTQSPSSLSASVGDRVTITCSASQGIENFLTWYQQKPGKALKLLIYYTSSLHSGVPSRFSGSGSGTDYTLTISSLQPEDFATYYCQQYSNLPFTFGQGTKVEIK", "EC50 (read off the curve)": "~0.4 nM"}
{"BINDER": "h5D3 variant HVg7 (antibody, human IgG1, V domains shown, Full-length human IgG1 kappa variant of h5D3 (antibody 6)) VH: EVQLVESGGGLVQPGGSLRLSCAASGYAFQTSWMNWVRQAPGKGLEWISRIYPGDGDTNYNGKFKGKATISADKSKNTLYLQMNSLRAEDTAVYYCARGEWYLYYFDYWGQGTLVTVSS VL: DIQMTQSPSSLSASVGDRVTITCSASQGINNFLTWYQQKPGKALKLLIYYTSSLHSGVPSRFSGSGSGTDYTLTISSLQPEDFATYYCQQYSNLPFTFGQGTKVEIK", "EC50 (read off the curve)": "~0.4 nM"}
{"BINDER": "h5D3 variant HVg5 (antibody, human IgG1, V domains shown, Full-length human IgG1 kappa variant of h5D3 (antibody 6)) VH: EVQLVESGGGLVQPGGSLRLSCAASGYAFQTSWMNWVRQAPGKGLEWISRIYPGEGSTNYNAKFKGKATISADKSKNTLYLQMNSLRAEDTAVYYCARGEWYLYYFDYWGQGTLVTVSS VL: DIQMTQSPSSLSASVGDRVTITCSASQGINNFLTWYQQKPGKALKLLIYYTSSLHSGVPSRFSGSGSGTDYTLTISSLQPEDFATYYCQQYSNLPFTFGQGTKVEIK", "EC50 (read off the curve)": "~0.2 nM"}
{"BINDER": "h5D3 variant LVg2HVg4 (antibody, human IgG1, V domains shown, Full-length human IgG1 kappa variant of h5D3 (antibody 6)) VH: EVQLVESGGGLVQPGGSLRLSCAASGYAFQTSWMNWVRQAPGKGLEWISRIYPGEGDTNYNAKFKGKATISADKSKNTLYLQMNSLRAEDTAVYYCARGEWYLYYFDYWGQGTLVTVSS VL: DIQMTQSPSSLSASVGDRVTITCSASQGIENFLTWYQQKPGKALKLLIYYTSSLHSGVPSRFSGSGSGTDYTLTISSLQPEDFATYYCQQYSNLPFTFGQGTKVEIK", "EC50 (read off the curve)": "~0.5 nM"}
{"BINDER": "h5D3 variant HVg4 (antibody, human IgG1, V domains shown, Full-length human IgG1 kappa variant of h5D3 (antibody 6)) VH: EVQLVESGGGLVQPGGSLRLSCAASGYAFQTSWMNWVRQAPGKGLEWISRIYPGEGDTNYNAKFKGKATISADKSKNTLYLQMNSLRAEDTAVYYCARGEWYLYYFDYWGQGTLVTVSS VL: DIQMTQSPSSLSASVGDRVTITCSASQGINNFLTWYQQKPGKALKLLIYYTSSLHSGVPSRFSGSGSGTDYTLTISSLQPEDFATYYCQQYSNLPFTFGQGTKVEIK", "EC50 (read off the curve)": "~0.4 nM"}
{"BINDER": "6-5D3-IgG1 (antibody, V domains shown, N-glycosylation at VH N30, also called h5D3; humanized 5D3) VH: EVQLVESGGGLVQPGGSLRLSCAASGYAFNTSWMNWVRQAPGKGLEWISRIYPGDGDTNYNGKFKGKATISADKSKNTLYLQMNSLRAEDTAVYYCARGEWYLYYFDYWGQGTLVTVSS VL: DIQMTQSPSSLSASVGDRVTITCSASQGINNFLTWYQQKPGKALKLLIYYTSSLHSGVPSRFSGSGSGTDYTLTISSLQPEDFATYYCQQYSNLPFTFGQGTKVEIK", "EC50 (read off the curve)": "~0.5 nM"}
{"BINDER": "h5D3 variant LVg2HVg7 (antibody, human IgG1, V domains shown, Full-length human IgG1 kappa variant of h5D3 (antibody 6)) VH: EVQLVESGGGLVQPGGSLRLSCAASGYAFQTSWMNWVRQAPGKGLEWISRIYPGDGDTNYNGKFKGKATISADKSKNTLYLQMNSLRAEDTAVYYCARGEWYLYYFDYWGQGTLVTVSS VL: DIQMTQSPSSLSASVGDRVTITCSASQGIENFLTWYQQKPGKALKLLIYYTSSLHSGVPSRFSGSGSGTDYTLTISSLQPEDFATYYCQQYSNLPFTFGQGTKVEIK", "EC50 (read off the curve)": "~0.4 nM"}

Hey, just so you know, these numbers are from patent US20250282890A1.
